Reference source for all entries: ChEMBL document CHEMBL1126136

# Assayed system: 5-hydroxytryptamine receptor 1A (Rattus norvegicus)
# Sequence (P19327 whole entry): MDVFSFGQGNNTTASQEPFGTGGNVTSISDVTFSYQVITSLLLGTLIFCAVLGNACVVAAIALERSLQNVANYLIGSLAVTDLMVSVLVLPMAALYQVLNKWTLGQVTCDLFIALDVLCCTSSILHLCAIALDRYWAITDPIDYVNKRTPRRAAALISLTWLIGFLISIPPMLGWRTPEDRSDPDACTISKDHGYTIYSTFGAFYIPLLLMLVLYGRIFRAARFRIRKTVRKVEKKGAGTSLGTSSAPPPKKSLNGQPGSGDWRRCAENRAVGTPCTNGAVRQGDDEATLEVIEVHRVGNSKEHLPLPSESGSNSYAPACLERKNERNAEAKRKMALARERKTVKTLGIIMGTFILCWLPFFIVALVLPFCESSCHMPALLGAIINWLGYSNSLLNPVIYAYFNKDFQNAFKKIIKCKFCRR
# Method: Affinity in displacing [3H]8-OH-DPAT from rat hippocampal 5-hydroxytryptamine 1A receptor.
# Type: tissue-based, Hippocampus
pKi: −log10 of the molar value.
Property measured: pKi

INSERT INTO measurements (chem_smiles, data_value) VALUES
  ('CC[C@H](C)NC(=O)[C@@H]1C=C2c3cccc4[nH]cc(c34)C[C@H]2N(C)C1', 8.34);
